Molecular target: KRas G12D/Q61H double mutant (Homo sapiens (Human), UniProt P01116, G12D/Q61H)
Sequence (P01116-2 other isoform, or with tags, fused parts or gaps G12D/Q61H): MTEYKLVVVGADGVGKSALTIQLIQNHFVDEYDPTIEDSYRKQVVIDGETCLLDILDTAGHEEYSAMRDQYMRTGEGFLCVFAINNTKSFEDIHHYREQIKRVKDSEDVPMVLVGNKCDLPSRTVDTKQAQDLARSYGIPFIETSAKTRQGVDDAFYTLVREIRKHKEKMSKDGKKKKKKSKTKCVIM
Test: Ras GTP binding domain inhibition assay (labeled GTP)
Settings: 20 μM compound; read-out: % Inhibition at 20 μM KRas G12D Q61H
observable: inhibition at 20 µM

Batch of 7 compounds: report inhibition at 20 µM for each.
1. Nc1nc(-c2ccccn2)nn1C(=O)Cc1csc(-c2ccccc2)n1
2. O=C1COc2c(cccc2C(=O)Nc2nnc(-c3ccccn3)[nH]2)N1
3. O=C(c1ccc(COc2ccccc2F)o1)N1CCOc2ccccc21
4. CC1CN(Cc2ccccc2)CCN1C(=O)c1csc2c(O)nc(-c3ccccn3)nc12 (stereo not drawn)
5. COc1ccc(OCCn2c(CN3CCCCC3)nc3ccccc32)cc1
6. Cc1ccc(C)c(NC(=O)c2ccccc2OCCOc2ccccc2)c1
7. CS(=O)(=O)Nc1nc(-c2ccccn2)nc2scc(-c3ccccc3)c12

1: 25 to 50%; 2: 25 to 50%; 3: 1 to 25%; 4: 25 to 50%; 5: 1 to 25%; 6: 25 to 50%; 7: 1 to 25%

Batch of 5 compounds: report inhibition at 20 µM for each.
1. Oc1nc(-c2ccccn2)nc2c(-c3ccnn3-c3ccccn3)csc12 [drawing 2904]
2. COc1ccc2c(c1)CCC2C(=O)Nc1nc(-c2ccccn2)nc2sccc12 (stereo not drawn) [drawing 2818]
3. Fc1ccccc1-c1csc(C2CN(Cc3ccccc3)CCO2)n1 (stereo not drawn)
4. COC(=O)CCN(Cc1ccc(Oc2ccc(OC)cc2)cc1)C1CCOCC1
5. COc1ccccc1CC(=O)Nc1nnc(-c2ccccn2)[nH]1

1. 1 to 25%
2. 1 to 25%
3. 1 to 25%
4. 1 to 25%
5. 25 to 50%

Batch of 4 compounds: report inhibition at 20 µM for each.
1. Cc1nc(-c2ccc(F)cc2)sc1C(=O)NCCN(C)c1ccccc1
2. CC(C)Cc1cc(C(=O)Nc2cc(-c3ccncc3)nn2C)[nH]n1
3. Oc1nc(-c2ccccn2)nc2c(-c3cc(F)cc(F)c3)csc12 [drawing 2900]
4. Cc1cccc(-c2nnc(NC(=O)C3Cc4cc(F)ccc4O3)[nH]2)n1 (stereo not drawn)

25 to 50%
1 to 25%
51 to 75%
25 to 50%

Source of measurements: patent US10940139B2
